- System: E. coli TESEC Mtb Alr
- test_method_notes: growth (OD600 after 10 h); higher = more growth (less inhibition)
- reported_conditions: arabinose 1000 nM; compound 0.1 mM; raw OD600 reference: median of DMSO wells 0.294, cell-free background 0.041
Where a name gives a salt, the structure may show the parent alone.
Give measured growth for each item. Keep answers brief.
Numbers only.

{"molecule": "C=C1C[C@H]2[C@@H]3C=C(C)C4=CC(=O)CC[C@]4(C)[C@H]3CC[C@]2(C)[C@@]1(OC(C)=O)C(C)=O [Melengestrol acetate]", "observation_type": "growth", "endpoint_value": 0.281}

Hi team, please reply with growth for each item in this list.
1. COc1cc(C(=O)OCCCN2CCCN(CCCOC(=O)c3cc(OC)c(OC)c(OC)c3)CC2)cc(OC)c1OC [Dilazep dihydrochloride]
2. COc1cc(C)nc(-n2nc(C)cc2OC)n1 [Epirizole]
3. COC(=O)C1=C(C)NC(C)=C(C(=O)OC)C1c1ccccc1[N+](=O)[O-]
4. C[C@H]1[C@H](NC(=O)/C(=N\OC(C)(C)C(=O)O)c2csc(N)n2)C(=O)N1S(=O)(=O)O

Result block:
1: 0.264; 2: 0.263; 3: 0.144; 4: 0.0624

* * *

- System: E. coli TESEC Alr+ wild-type control
- test_method_notes: growth (OD600 after 10 h); higher = more growth (less inhibition)
- reported_conditions: compound 0.1 mM; raw OD600 reference: median of DMSO wells 0.241, cell-free background 0.041
Where a name gives a salt, the structure may show the parent alone.
observation_type: growth
Answers are plain numbers.

Examples with answers:
{"compound": "Clc1ccc(CCC(Cn2ccnc2)Sc2c(Cl)cccc2Cl)cc1 (centres undefined) [Butoconazole nitrate]", "growth": 0.0548}
{"compound": "O=C1CCc2ccc(OCCCCN3CCN(c4cccc(Cl)c4Cl)CC3)cc2N1", "growth": 0.171}
{"compound": "CC(C)(C)NC[C@@H](O)COc1cccc2c1CCCC2=O [(+) -Levobunolol hydrochloride]", "growth": 0.226}

Data point: "NCCCC[C@H](N[C@@H](CCc1ccccc1)C(=O)O)C(=O)N1CCC[C@H]1C(=O)O" ; growth = 0.257

* * *

Assign growth to each entry below.
- System: E. coli TESEC Mtb Alr
- test_method_notes: growth (OD600 after 10 h); higher = more growth (less inhibition)
- reported_conditions: arabinose 1000 nM; compound 0.1 mM; raw OD600 reference: median of DMSO wells 0.294, cell-free background 0.041
Structures can show the parent of a compound that is named as a salt.
Answers are plain numbers.

{"compound": "CCC(C)(C)C(=O)O[C@H]1C[C@@H](C)C=C2C=C[C@H](C)[C@H](CC[C@@H]3C[C@@H](O)CC(=O)O3)[C@H]21 [Simvastatin]", "test_target": "E. coli TESEC Mtb Alr", "observation_type": "growth", "endpoint_value": 0.201}
{"compound": "CO/N=C(\\C(=O)N[C@@H]1C(=O)N2C(C(=O)O)=C(C[N+]3(C)CCCC3)CS[C@H]12)c1csc(N)n1 [Cefepime hydrochloride]", "test_target": "E. coli TESEC Mtb Alr", "observation_type": "growth", "endpoint_value": 0.0381}
{"compound": "Cc1cc2cc3c(C)cc(=O)oc3c(C)c2o1 [Trioxsalen]", "test_target": "E. coli TESEC Mtb Alr", "observation_type": "growth", "endpoint_value": 0.312}

Dear colleague, could you send me growth for each of the items below? Thanks.
1. Cc1nc(=O)c2cc(CN(C)c3ccc(C(=O)N[C@@H](CCC(=O)O)C(=O)O)s3)ccc2[nH]1 [Raltitrexed]
2. N=C(NCCCCCCNC(=N)NC(=N)Nc1ccc(Cl)cc1)NC(=N)Nc1ccc(Cl)cc1 [Chlorhexidine]
3. CC[C@H]1OC(=O)[C@H](C)[C@@H](O[C@H]2C[C@@](C)(OC)[C@@H](O)[C@H](C)O2)[C@H](C)[C@@H](O[C@@H]2O[C@H](C)C[C@H](N(C)C)[C@H]2O)[C@](C)(O)C[C@@H](C)[C@@H]2N[C@@H](COCCOC)O[C@H]([C@H]2C)[C@]1(C)O [Dirithromycin]
4. CCOC(=O)C(C)(C)Oc1ccc(Cl)cc1 [Clofibrate]

Result block:
0.259
0.0435
0.0419
0.287

* * *

- Test system: E. coli TESEC Mtb DapB
- test_method_notes: growth (OD600 after 10 h); higher = more growth (less inhibition)
- reported_conditions: arabinose induction (level): High; compound 0.1 mM; raw OD600 reference: median of DMSO wells […], cell-free background 0.041
Counter-ions that a name gives are not always drawn.
observation_type: growth
One number for each entry.

Use the examples below as a reference point.
{"compound": "CC1=C(/C=C/C(C)=C/C=C/C(C)=C/C(=O)O)C(C)(C)CCC1 [Retinoic acid]", "endpoint_value": 0.186}
{"compound": "CCC(=O)OCC(=O)[C@@]1(OC(=O)CC)[C@H](C)C[C@H]2[C@H]3[C@H]([C@@H](O)C[C@@]21C)[C@@]1(C)C=CC(=O)C=C1C[C@H]3Cl [Alclometasone dipropionate]", "endpoint_value": 0.198}
{"compound": "CCN(CC)C(C)CN1c2ccccc2Sc2ccccc21 (stereo not drawn) [Ethopropazine hydrochloride]", "endpoint_value": 0.215}
{"compound": "CC1CCc2c(N3CCC(O)CC3)c(F)cc3c(=O)c(C(=O)O)cn1c23 (stereo not drawn) [Nadifloxacin]", "endpoint_value": 0.0495}
{"compound": "CCOC(=O)[C@H](CCc1ccccc1)N[C@@H](C)C(=O)N1CCC[C@H]1C(=O)O [Enalapril maleate]", "endpoint_value": 0.188}

Give me growth for each of these compounds, listed below.
1. CCC[C@H](N[C@@H](C)C(=O)N1[C@H](C(=O)O)C[C@@H]2CCCC[C@@H]21)C(=O)OCC [Perindopril]
2. N=C(N)NCc1cccc(I)c1 [Iobenguane sulfate]
3. CN1CCN(C2=Nc3ccccc3Oc3ccc(Cl)cc32)CC1 [Loxapine succinate]

Result block:
1. 0.198
2. 0.188
3. 0.19

* * *

- System: E. coli TESEC Alr+ wild-type control
- test_method_notes: growth (OD600 after 10 h); higher = more growth (less inhibition)
- reported_conditions: compound 0.1 mM; raw OD600 reference: median of DMSO wells 0.241, cell-free background 0.041
Counter-ions that a name gives are not always drawn.
observation_type: growth
One number for each entry.

Below, 5 molecules whose answers are already recorded.
{"molecule": "C[C@]1(Cn2ccnn2)[C@H](C(=O)O)N2C(=O)C[C@H]2S1(=O)=O", "growth": 0.249}
{"molecule": "C[C@H](N[C@@H](CCc1ccccc1)C(=O)O)C(=O)N1CCC[C@H]1C(=O)O [Enalaprilat dihydrate]", "growth": 0.228}
{"molecule": "CC(=O)Oc1ccccc1C(=O)O", "growth": 0.242}
{"molecule": "O=C(O)c1cc(=O)c2c(OCC(O)COc3cccc4oc(C(=O)O)cc(=O)c34)cccc2o1 [Cromolyn disodium salt]", "growth": 0.257}
{"molecule": "NS(=O)(=O)c1cc2c(cc1Cl)N=CNS2(=O)=O [Chlorothiazide]", "growth": 0.254}

Report growth for every entry below.
1. O=C1C(=O)c2ccccc2C(O)=C1C1CCC(c2ccc(Cl)cc2)CC1 (configuration not stated)
2. Cc1ccc(O)c([C@H](CCN(C(C)C)C(C)C)c2ccccc2)c1 [Tolterodine tartrate]
3. CCn1cc(C(=O)O)c(=O)c2cc(F)c(N3CCNCC3)cc21
4. C[C@@](Cc1ccc(O)c(O)c1)(NN)C(=O)O
5. C[C@H]1O[C@@H](O[C@H]2[C@@H](O)C[C@H](O[C@H]3[C@@H](O)C[C@H](O[C@H]4CC[C@@]5(C)[C@H](CC[C@@H]6[C@@H]5C[C@@H](O)[C@]5(C)[C@@H](C7=CC(=O)OC7)CC[C@]65O)C4)O[C@@H]3C)O[C@@H]2C)C[C@H](O)[C@@H]1O
6. CC(=O)OCC(=O)[C@@]1(O)CC[C@H]2[C@@H]3CCC4=CC(=O)CC[C@]4(C)[C@H]3[C@@H](O)C[C@@]21C [Cortisol acetate]
7. C1N2CN3CN1CN(C2)C3
8. CCn1cc(C(=O)O)c(=O)c2ccc(C)nc21 [Nalidixic acid sodium salt]

Result block:
1. 0.171
2. 0.163
3. 0.0444
4. 0.225
5. 0.232
6. 0.234
7. 0.245
8. 0.0499

Provide each entry's growth from the list below.
1. CC(C)(O/N=C(\C(=O)N[C@@H]1C(=O)N2C(C(=O)[O-])=C(C[n+]3ccccc3)CS[C@H]12)c1csc(N)n1)C(=O)O [Ceftazidime pentahydrate]
2. COc1ccc2c3c1O[C@H]1C[C@@H](O)C=C[C@@]31CCN(C)C2 [Galanthamine hydrobromide]
3. COc1cc2nc(N(C)CCCNC(=O)C3CCCO3)nc(N)c2cc1OC (configuration not stated) [Alfuzosin hydrochloride]

Result block:
1: 0.0434; 2: 0.249; 3: 0.215

// growth value for "Cc1cc(C(=O)NNCc2ccccc2)no1" : 0.253
